Tested on: MCF7 breast
Test: NCI tumour cell line growth inhibition, 48 h
readoutKind: GI50

Reference set, count: 4
| compound | measuredResult |
| --- | --- |
| CCCCCCCCCCCCOC1C(CNCC2OC3OC(C)(C)OC3C2NC(=O)Nc2ccc(C(=O)OCC)cc2)OC2OC(C)(C)OC21 (stereo not given) | 1.35 µM |
| ClCc1ccccc1CSc1ncnc2nc[nH]c12 | 53 µM |
| COc1ccc(-n2cc(-c3ccc(OC)c(OC)c3)[nH]c2=S)cc1Cl | > 100 µM |
| CC(=O)c1ccc(N(/C=C/C(=O)C(F)(F)F)CC(=O)c2ccc(Cl)c(Cl)c2)cc1 | 15.3 µM |

Ask: GI50 lookup needed for OC(c1cccc(C(F)(F)F)c1)c1cnccc1NC1CCCCCC1 (stereo not given) , thanks.
Result: 1.66 µM

---

Test system: MDA-MB-435
Test: NCI tumour cell line growth inhibition, 48 h
Measured TGI values are reported for all entries that follow.

Please review the following examples before continuing.
| compound | TGI |
| --- | --- |
| CO/N=C1/c2sccc2[C@H](NC(=O)CNC(=O)OC(C)(C)C)[C@@H]1O | > 100 µM |
| CC1CC(C#N)=C2NCCCCN2C1=O (stereo not given) | > 100 µM |
| N#CC(C#N)=C1CCCS(=O)(=O)c2ccccc21 | > 100 µM |

Ask: Dear colleague, I am looking for the recorded TGI of the following compound: `Cc1cccc(C[C@@]2(SCc3ccccc3)C(C)(C)[C@@H]3CC[C@@]2(C)C3)n1`
Result: 78.3 µM

Ask: Record request: TGI value, item `Cc1oc2nc(N(C)C)n3nnnc3c2c1C`
Result: > 100 µM

---

System: RPMI-8226 leukemia
Test: NCI tumour cell line growth inhibition, 48 h
readoutKind: GI50

The cases that follow already have their GI50 on record.
| smilesText | GI50 |
| --- | --- |
| COc1ccc(-n2cc(-c3ccc(OC)c(OC)c3)[nH]c2=S)cc1Cl | > 100 µM |
| Cc1c(N2C(=O)/C(=C\c3ccccc3O)N=C2c2ccccc2)c(=O)n(-c2ccccc2)n1C | > 100 µM |

Ask: For the compound `COc1ccccc1NC(=O)c1ccc(/C=C/C(=O)c2nccn2C)cc1` , what GI50 is on record?
Result: 0.429 µM

Ask: GET /values?readout=GI50&item= `COc1nc2c(cc1S(=O)(=O)c1ccccc1)CCc1c-2cnn1-c1ccccc1Cl`
Result: 5.39 µM

Ask: What value of GI50 has been recorded for this entry: `CN1CCN(Cc2ccc(NC(=O)c3cncc(C#Cc4cnc(N)c5ccccc45)c3)cc2C(F)(F)F)CC1`
Result: 0.441 µM

Ask: So what does the record say about GI50 for `CC1=C2[C@@H](CC1)[C@]1(C)O[C@@](C(C)C)(C[C@H]1OC(=O)[C@H](C)O)[C@H]2OC(=O)/C=C/c1ccccc1` ?
Result: 7.9 µM

Ask: Quick check: GI50 of `CN(C)CCNc1nc2ccccc2c2[nH]c3ccccc3c12` ?
Result: 0.648 µM

Ask: Any idea what GI50 was measured for `COc1cccc(-c2nn(-c3ccccc3)cc2-c2ccnc(NCCCNS(=O)(=O)c3cccc(F)c3)c2)c1` ?
Result: 2.91 µM

Ask: Field request: GI50 | item: `CN=C1NC(=O)/C(=C/c2ccc3ncccc3c2)S1`
Result: 12.1 µM

---

Tested on: ACHN renal
Assay: NCI tumour cell line growth inhibition, 48 h
readoutKind: GI50

Please review the following examples before continuing.
| smilesText | readoutKind | measuredResult |
| --- | --- | --- |
| C[C@@H]1Cc2c([nH]c3ccccc23)[C@@H](c2c(F)cc(/C=C/C(=O)O)cc2F)N1CC(C)(C)F | GI50 | 12.7 µM |
| O=C(/C=C(\[O-])c1ccccc1)CCCCCCC(=O)/C=C(\[O-])c1ccccc1.O=C(/C=C(\[O-])c1ccccc1)CCCCCCC(=O)/C=C(\[O-])c1ccccc1.O=C(/C=C(\[O-])c1ccccc1)CCCCCCC(=O)/C=C(\[O-])c1ccccc1.[La+3].[La+3] | GI50 | > 50 µM |

--- query ---
Ask: Given `CCOC(=O)c1cc(-c2ccc([N+](=O)[O-])cc2)n(-c2ccc(C(=O)O)c(O)c2)c1C` , state its recorded GI50.
Result: 2.94 µM

---

The molecules listed here are annotated with their TGI.
Tested on: CCRF-CEM leukemia
Assay: NCI tumour cell line growth inhibition, 48 h

Some molecules with known TGI results, for comparison:
| molecule | readoutKind | measuredResult |
| --- | --- | --- |
| CC1=C2[C@@H](CC1)[C@]1(C)O[C@@](C(C)C)(C[C@H]1OC(=O)[C@H](C)O)[C@H]2OC(=O)/C=C/c1ccccc1 | TGI | 41.9 µM |
| N#Cc1cnn2ccn(C3OC(COC(=O)c4ccccc4)C(OC(=O)c4ccccc4)C3OC(=O)c3ccccc3)c12 (stereo not drawn) | TGI | > 21.5 µM |
| COC(=O)c1c(OC)cccc1C(=O)O | TGI | > 100 µM |
| C=CC/C(C(=O)OC)=C(/C(=O)OC)N(CCC)CCC | TGI | > 100 µM |
| CCOC(=O)c1c(SCCN2CCCC2)n(-c2ccccc2)c(=S)n(-c2ccccc2)c1=O | TGI | 4.14 µM |
| COc1ccc(CNc2nc3ccc(C(F)(F)F)cc3nc2-c2ccccc2)cc1OC | TGI | > 100 µM |

Ask: So what's the measured TGI for this one? `NC1(CCCCCCCCCCC(=O)O)CNCCNCCNCCNC1`
Result: > 100 µM

Ask: Using the record for `Cc1oc2nc(N(C)C)n3nnnc3c2c1C` , report its TGI.
Result: > 100 µM

Ask: Tell me the measured TGI of COc1cc([C@@H]2c3cc4c(cc3[C@@H](NC(=O)c3cccc([N+](=O)[O-])c3)C3COC(=O)[C@@H]32)OCO4)cc(OC)c1O (stereo partly drawn) , please.
Result: > 100 µM

---

Tested on: HL-60(TB) leukemia
Test: NCI tumour cell line growth inhibition, 48 h; in the data active means GI50 below about 0.43 µM; inactive means the rest
Select the correct class. Options are yes (active), no (inactive) and nothing else.

| smilesText | systemTested | labelClass |
| --- | --- | --- |
| COc1cc([C@@H]2c3cc4c(cc3C[C@H]3COC(=O)[C@@H]32)OCO4)cc(OC)c1OC | HL-60(TB) leukemia | yes |
| N#Cc1nc(-c2ccc(F)cc2)oc1S(=O)(=O)N1CCOCC1 | HL-60(TB) leukemia | no |
| CN=C1NC(=O)/C(=C/c2ccc3ncccc3c2)S1 | HL-60(TB) leukemia | no |

Kindly consider the entry below.
Ask: Field: outcome | Entry: `Fc1ccc(-c2nn(-c3ccccc3)cc2-c2nc3ccccc3o2)cc1`
Result: no

---

# TGI values compiled below
Test system: MDA-N
Experiment: NCI tumour cell line growth inhibition, 48 h

| compound | TGI |
| --- | --- |
| O=c1c2cc(I)ccc2[nH]c(=S)n1Cc1ccccc1 | > 100 µM |

Ask: I am curious: what TGI value has been reported for `O=C1NC(=S)NC(=O)C1C(c1ccccc1[N+](=O)[O-])C1C(=O)NC(=S)NC1=O` ?
Result: > 100 µM

Ask: // returns reported TGI for input `O=C1C(Br)=Cc2c(Cl)sc(Cl)c21`
Result: 8.7 µM

Ask: I'd like to know its TGI. The compound in question is `CC(C)CCNC(=O)c1ccc(CNC(=O)/C=C/c2ccc(OCc3ccccc3)cc2)cc1`
Result: > 100 µM

Ask: Could you tell me which TGI is on file for CCOC(=O)C1C(=O)CC(O)(c2ccccc2)C(C(=O)OCC)C1c1ccc(OC)cc1 (centres undefined) ?
Result: 16 µM

Ask: Looking for the measured TGI of `CN(C)c1ccc2c(c1)oc(=O)c1ccccc12` , can you help?
Result: 26.7 µM

Ask: Which TGI value belongs to `Cc1nc2ccc([N+](=O)[O-])cc2c(=O)n1C(=S)Nc1cccc(Cl)c1` ?
Result: 39.4 µM

Ask: Entry CC1=CC=CC(C)(C)CC1(O[Si](C)(C)C)C(F)(F)F (centres undefined) : reported TGI = ?
Result: > 100 µM

Ask: // query TGI value for entry `CN1CN(c2ccccc2)C2(CCN(CCCC3(c4cccs4)OCCO3)CC2)C1=O`
Result: > 100 µM

Ask: Find the recorded TGI belonging to `COc1ccc2c(c1)C(=O)c1ccccc1C2` and report it.
Result: > 100 µM

---

Test system: SR leukemia
Hello, when you answer, please use one of the following outcomes: active, inactive

Worked examples, 5 molecules total:
| molecule | labelClass |
| --- | --- |
| COC(=O)c1c2c(c(C)[n+]([O-])c1C)C(=O)C=CC2=O | inactive |
| CCN1CCN(c2nc(NCCNc3ccnc4cc(Cl)ccc34)c3ccccc3n2)CC1 | active |
| CC(=O)c1ccc(N(/C=C/C(=O)C(F)(F)F)CC(=O)c2ccc(Cl)c(Cl)c2)cc1 | inactive |
| N#Cc1nc(-c2ccc(F)cc2)oc1S(=O)(=O)N1CCOCC1 | inactive |
| CC1=C2[C@@H](CC1)[C@]1(C)O[C@@](C(C)C)(C[C@H]1OC(=O)[C@H](C)O)[C@H]2OC(=O)/C=C/c1ccccc1 | inactive |

Ask: Dear all, I need the recorded test outcome for `ClCc1ccccc1CSc1ncnc2nc[nH]c12` , thank you.
Result: inactive

Ask: Record lookup: outcome of this test for `Fc1ccc(-c2nn(-c3ccccc3)cc2-c2nc3ccccc3o2)cc1` ?
Result: inactive

Ask: Test call for this molecule, please: COc1ccc(CN2CCCC(C(=O)c3ccc(C(F)(F)F)cc3)C2)c(O)c1 (stereo not given)
Result: inactive

Ask: Assay outcome for `CN1CCN(Cc2ccc(NC(=O)c3cncc(C#Cc4cnc(N)c5ccccc45)c3)cc2C(F)(F)F)CC1` : what was it?
Result: active

Ask: Please let me know the test result on file for `CC[n+]1ccc2c(c1)C(=O)c1nccc3c1c-2nc1ccccc13` .
Result: active
